Each recorded value in this set is attributed to ChEMBL document CHEMBL3804825.

Assay: Metabolic stability in human liver microsomes assessed as compound loss at 2 uM measured after 30 mins in presence of NADPH by LC-MS/MS analysis
Assay type: ADME
Details: read-out: Drug degradation
MEASURED_ENDPOINT: metabolised at 0.5 h, 2 µM (%)
Kindly answer with a numeric value in %, unit omitted.

metabolised at 0.5 h, 2 µM reported for this compound `CNC(=O)c1cc(OCCCCN2CCN(c3cccc4sccc34)CC2)ccc1F` : 51

metabolised at 0.5 h, 2 µM reported for this compound `CNC(=O)c1cccc(OCCCCN2CCC(c3noc4cc(F)ccc34)CC2)c1` : 3

metabolised at 0.5 h, 2 µM reported for this compound `CNC(=O)c1cc(OCCCCN2CCN(c3nsc4ccccc34)CC2)ccc1F` : 47

metabolised at 0.5 h, 2 µM reported for this compound `CNC(=O)c1cc(OCCCCN2CCC(c3noc4cc(F)ccc34)CC2)ccc1F` : 14

* * *

Biological target: 5-hydroxytryptamine receptor 2C (Homo sapiens, UniProt P28335)
Sequence (P28335 whole entry): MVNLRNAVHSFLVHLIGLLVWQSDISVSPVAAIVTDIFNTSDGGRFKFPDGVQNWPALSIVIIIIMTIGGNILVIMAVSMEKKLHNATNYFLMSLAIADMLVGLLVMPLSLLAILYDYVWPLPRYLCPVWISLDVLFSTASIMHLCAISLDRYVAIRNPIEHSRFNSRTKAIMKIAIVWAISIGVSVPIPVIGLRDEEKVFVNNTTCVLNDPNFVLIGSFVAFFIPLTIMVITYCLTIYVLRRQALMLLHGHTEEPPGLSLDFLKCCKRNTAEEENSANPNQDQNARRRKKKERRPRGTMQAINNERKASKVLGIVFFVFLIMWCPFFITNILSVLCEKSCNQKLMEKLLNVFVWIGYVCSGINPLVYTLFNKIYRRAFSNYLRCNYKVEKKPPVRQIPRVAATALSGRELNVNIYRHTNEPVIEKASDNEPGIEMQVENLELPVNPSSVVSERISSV
Experiment: Antagonistic activity at 5-HT2c receptor (unknown origin) after 10 mins by FLIPR assay
MEASURED_ENDPOINT: pIC50
FYI, pIC50 means -log10 of a concentration in mol per litre.

>>> result_number("CNC(=O)c1cccc(OCCCCN2CCC(c3noc4cc(F)ccc34)CC2)c1")
6.72

pIC50 reported for this compound `CNC(=O)c1cc(OCCCCN2CCC(c3noc4cc(F)ccc34)CC2)ccc1F` : 6.57

* * *

Below, each entry is listed with its recorded IC50.
Molecular target: Histamine H1 receptor (Homo sapiens)
Sequence (P35367 whole entry): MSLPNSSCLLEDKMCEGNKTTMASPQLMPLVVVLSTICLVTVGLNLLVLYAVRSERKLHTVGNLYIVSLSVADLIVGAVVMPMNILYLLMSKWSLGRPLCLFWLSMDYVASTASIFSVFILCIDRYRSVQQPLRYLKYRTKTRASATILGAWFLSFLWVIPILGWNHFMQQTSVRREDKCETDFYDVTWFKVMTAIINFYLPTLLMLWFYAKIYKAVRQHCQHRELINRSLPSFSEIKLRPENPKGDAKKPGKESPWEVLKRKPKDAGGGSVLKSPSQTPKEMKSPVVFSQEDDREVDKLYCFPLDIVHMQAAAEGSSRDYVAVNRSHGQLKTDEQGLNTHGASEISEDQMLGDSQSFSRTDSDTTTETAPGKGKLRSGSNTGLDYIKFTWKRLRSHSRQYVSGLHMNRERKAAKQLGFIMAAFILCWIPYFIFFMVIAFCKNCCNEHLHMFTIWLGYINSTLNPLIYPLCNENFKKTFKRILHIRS
Test: Antagonistic activity at histamine1 receptor (unknown origin) after 10 mins by FLIPR assay
Kindly answer with a numeric value in nM, unit omitted.

>>> result_number("CNC(=O)c1cc(OCCCCN2CCC(c3noc4cc(F)ccc34)CC2)ccc1F")
972

Note: attention shifts to another entry.
IC50 reported for this molecule `CNC(=O)c1cccc(OCCCCN2CCC(c3noc4cc(F)ccc34)CC2)c1` : 2560

* * *

Target: UniProt:P14416
Assay: Antagonistic activity at human dopamine D2 receptor measured after 60 mins by Ultra Lance cAMP assay
Kindly apply the following: Condition met if IC50 is less than 90 nM, Condition not met in every other case.

Example cases with answers are listed next.
>>> class_name("CNC(=O)c1cc(OCCCCN2CCN(c3cccc4c3OC(F)(F)O4)CC2)ccc1F")
"Condition met"
>>> class_name("CNC(=O)c1ccc(Cl)c(OCCCCN2CCN(c3cccc(Cl)c3Cl)CC2)c1")
"Condition met"
>>> class_name("CNC(=O)c1cc(OCCCCN2CCC(c3noc4cc(F)ccc34)CC2)ccc1F")
"Condition met"

Below 90 nM on IC50? Entry `CNC(=O)c1ccccc1OCCCCN1CCN(c2cccc(Cl)c2Cl)CC1`
Condition not met

Below 90 nM on IC50? Entry `CNC(=O)c1cc(OCCCCN2CCN(c3cccc(Cl)c3Cl)CC2)cc(C(C)=O)c1`
Condition met

* * *

Below, each entry is listed with its recorded pIC50.
Target: 5-hydroxytryptamine receptor 2A (Homo sapiens, UniProt P28223)
Sequence (P28223 whole entry): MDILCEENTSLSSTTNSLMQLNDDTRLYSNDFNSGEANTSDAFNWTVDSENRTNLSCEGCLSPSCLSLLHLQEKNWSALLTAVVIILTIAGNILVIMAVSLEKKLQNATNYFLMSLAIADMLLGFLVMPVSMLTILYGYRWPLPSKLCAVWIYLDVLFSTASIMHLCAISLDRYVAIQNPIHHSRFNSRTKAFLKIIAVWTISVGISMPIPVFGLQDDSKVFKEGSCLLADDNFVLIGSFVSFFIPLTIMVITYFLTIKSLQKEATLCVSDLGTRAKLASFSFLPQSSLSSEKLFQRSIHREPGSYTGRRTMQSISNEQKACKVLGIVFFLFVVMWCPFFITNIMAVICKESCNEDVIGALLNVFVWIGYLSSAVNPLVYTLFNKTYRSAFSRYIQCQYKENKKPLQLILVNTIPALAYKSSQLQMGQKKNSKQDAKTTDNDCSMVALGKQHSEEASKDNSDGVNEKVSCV
Assay: Antagonistic activity at human 5-HT2A receptor assessed as calcium flux after 10 mins by FLIPR assay
FYI, pIC50 means -log10 of a concentration in mol per litre.

>>> result_number("CNC(=O)c1cccc(OCCCCN2CCN(c3nsc4ccccc34)CC2)c1")
6.74
>>> result_number("CNC(=O)c1cc(C)cc(OCCCCN2CCN(c3cccc(Cl)c3Cl)CC2)c1")
5.85
>>> result_number("CNC(=O)c1cc(OCCCCN2CCN(c3cccc(Cl)c3Cl)CC2)ccc1F")
6.44
>>> result_number("CNC(=O)c1cccc(OCCCCN2CCN(c3cccc(Cl)c3Cl)CC2)c1C")
6.07
>>> result_number("CNC(=O)c1cccc(OCCCCN2CCN(c3cccc(Cl)c3Cl)CC2)c1")
5.96

pIC50 reported for this compound `CNC(=O)c1cccc(OCCCCN2CCC(c3noc4cc(F)ccc34)CC2)c1` : 7.34

pIC50 reported for this compound `CC(=O)Nc1cccc(OCCCCN2CCN(c3cccc(Cl)c3Cl)CC2)c1` : 5.98

pIC50 reported for this compound `CNC(=O)c1cccc(OCCCCN2CCN(c3cccc(Cl)c3Cl)CC2)c1OC` : 6.14

* * *

Target: 5-hydroxytryptamine receptor 1A (Homo sapiens)
Sequence (P08908 whole entry): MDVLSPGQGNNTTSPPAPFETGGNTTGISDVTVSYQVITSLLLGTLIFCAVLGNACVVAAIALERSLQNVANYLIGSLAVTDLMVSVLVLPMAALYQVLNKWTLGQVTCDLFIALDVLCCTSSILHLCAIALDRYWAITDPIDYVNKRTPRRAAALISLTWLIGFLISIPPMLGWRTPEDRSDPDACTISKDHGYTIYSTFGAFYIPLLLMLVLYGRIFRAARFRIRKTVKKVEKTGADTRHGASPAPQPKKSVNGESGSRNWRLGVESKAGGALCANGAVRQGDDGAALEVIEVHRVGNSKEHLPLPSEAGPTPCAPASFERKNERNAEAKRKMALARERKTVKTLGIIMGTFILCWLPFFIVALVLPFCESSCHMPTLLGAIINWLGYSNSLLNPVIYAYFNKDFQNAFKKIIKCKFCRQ
Test: Agonistic activity at human 5-HT1A receptor measured after 60 mins by Ultra Lance cAMP assay
MEASURED_ENDPOINT: log10 of EC50 (log10 of the value in nM)
Units before log transform: nM; reported quantity: EC50; transform: log10.

>>> result_number("CCCCCNC(=O)c1cccc(OCCCCN2CCN(c3cccc(Cl)c3Cl)CC2)c1")
2.67

log10 of EC50 reported for this compound `CNC(=O)c1cc(OCCCCN2CCN(c3cccc4c3OC(F)(F)O4)CC2)ccc1F` : 0.91

log10 of EC50 reported for this compound `NC(=O)c1cccc(OCCCCN2CCN(c3cccc(Cl)c3Cl)CC2)c1` : 1.41

log10 of EC50 reported for this compound `CNC(=O)c1cccc(OCCCCN2CCN(c3cccc4sccc34)CC2)c1` : 0.71

log10 of EC50 reported for this compound `CNC(=O)c1cc(OCCCCN2CCN(c3cccc(Cl)c3Cl)CC2)ccc1C` : 1.87

log10 of EC50 reported for this compound `CNC(=O)c1cccc(OCCCCN2CCN(c3cccc(Cl)c3Cl)CC2)c1` : 1.38

log10 of EC50 reported for this compound `CNC(=O)c1cccc(OCCCCN2CCN(c3cccc4c3OC(F)(F)O4)CC2)c1` : 1.08

* * *

Target: D(2) dopamine receptor (Homo sapiens)
Sequence (P14416 whole entry): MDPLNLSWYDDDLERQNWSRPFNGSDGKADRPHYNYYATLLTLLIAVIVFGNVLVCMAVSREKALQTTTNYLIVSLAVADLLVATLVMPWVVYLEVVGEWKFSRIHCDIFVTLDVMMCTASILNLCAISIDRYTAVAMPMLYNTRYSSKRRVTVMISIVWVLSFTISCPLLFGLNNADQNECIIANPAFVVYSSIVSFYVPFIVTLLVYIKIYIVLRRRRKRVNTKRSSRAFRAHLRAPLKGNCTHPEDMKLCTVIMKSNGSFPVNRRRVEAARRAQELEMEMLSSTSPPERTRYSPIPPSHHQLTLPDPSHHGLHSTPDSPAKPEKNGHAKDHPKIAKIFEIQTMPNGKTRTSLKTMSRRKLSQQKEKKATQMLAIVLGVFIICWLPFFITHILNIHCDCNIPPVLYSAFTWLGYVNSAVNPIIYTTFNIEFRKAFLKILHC
Test: Antagonistic activity at human dopamine D2 receptor measured after 60 mins by Ultra Lance cAMP assay
Below, each entry is listed with its recorded pIC50.
FYI, pIC50 means -log10 of a concentration in mol per litre.

Consider the worked cases shown below.
>>> result_number("CCNC(=O)c1cccc(OCCCCN2CCN(c3cccc(Cl)c3Cl)CC2)c1")
6.94
>>> result_number("CNC(=O)c1cccc(OCCCCN2CCN(c3cccc4sccc34)CC2)c1")
7.04
>>> result_number("CNC(=O)c1cccc(OCCCCN2CCN(c3cccc(Cl)c3Cl)CC2)c1OC")
6.69
>>> result_number("CNC(=O)c1ccc(OC)c(OCCCCN2CCN(c3cccc(Cl)c3Cl)CC2)c1")
7.92

pIC50 reported for this compound `CNC(=O)c1cc(C)cc(OCCCCN2CCN(c3cccc(Cl)c3Cl)CC2)c1` : 7.05
